# methodSummary: pH of hair perming composition
# Assay type: physicochemical
# runParameters: hair perming composition: base of Table 2 (7.50% thioglycolic acid) plus alkalizer, same molar percentage of alkalizer
Class True: pH at least 9. Class False: pH below 9.

CN(C)C(C)(C)CO    True
NC(CO)(CO)CO    False

Would you kindly look at the next entry?
Dear colleague, could you confirm whether NCCO [MEA, Monoethanolamine, reference compound] has pH at or above 9?
True

----------
# methodSummary: Curl efficiency after hair curling treatment
# Parameters: species or system human
# runParameters: Type 1 Chinese hair; equivalent of 8 washes with 5% SDS solution
Values of Curl Efficiency (%) After Treatment, 8 Washes and Dry greater than or equal to 50% map to 1; values below map to -1.

Please review the entries below; each comes with its answer.
NCCO [MEA, Monoethanolamine, reference compound]    1
NCC(O)CO (stereo not drawn)    1
NC(CO)CO    -1
CCC(N)(CO)CO    -1

Query compound follows.
# check: Curl Efficiency (%) After Treatment, 8 Washes and Dry of [Na+].[OH-] [NaOH, reference compound] is greater than or equal to 50%
-1

----------
For each entry below, report its ΔT (TUntreated−TAlkalizer, keratin denaturation temperature) value.
# methodSummary: DSC keratin denaturation temperature change after curling treatment
# Set-up: species or system human
# runParameters: Type 1 Chinese hair after curling treatment; larger ΔT indicates more damage
Answers are plain numbers, in C. °.

NCC(O)CO (stereo not shown)    2.51
NC(CO)(CO)CO    −0.77
NC(CO)CO    0.62

Next compound, please.
Name the recorded ΔT (TUntreated−TAlkalizer, keratin denaturation temperature) for [Na+].[OH-] [NaOH, reference compound] .
5.60

----------
Hi there, I'd appreciate the recorded pH of alkalizer composition for every entry that follows.
# methodSummary: pH of hair perming composition
# Assay type: physicochemical
# runParameters: Table 7
Numbers only.

Worked examples, 5 molecules total:
NCCO [MEA, Monoethanolamine, reference compound]    9.40
NCC(O)CO (stereo not drawn) [Isoserinol, 3-Amino-1,2-propanediol]    9.18
N.O [Ammonium hydroxide, reference compound]    9.14
[Na+].[OH-] [NaOH, reference compound]    10.56
CC(N)(CO)CO [AMPD, 2-Amino-2-methyl-1,3-propanediol]    9.09

# per-item lookup of pH of alkalizer composition; items listed below
1. CN(C)C(C)(C)CO [DMAMP, 2-Dimethylamino-2-methyl-1-propanol]
2. NC(CO)(CO)CO [Tris, Tromethamine]
3. NC(CO)CO [Serinol, 2-Amino-1,3-propanediol]
4. CCC(N)(CO)CO [AEPD, 2-Amino-2-ethyl-1,3-propanediol]

10.18
8.36
8.68
9.09

----------
# methodSummary: Curl efficiency after hair curling treatment
# Parameters: species or system human
# runParameters: Type 1 Caucasian hair; 1 wash with 5% SDS solution
property: Curl Efficiency (%) After Treatment, 1 Wash and Dry

CCC(N)(CO)CO    43.93%

Hi, could you look up Curl Efficiency (%) After Treatment, 1 Wash and Dry for each item in my list?
1. NCCO [MEA, Monoethanolamine, reference compound]
2. NC(CO)CO
3. NCC(O)CO (stereo not drawn)

1. 50.47%
2. 45.79%
3. 48.60%

Give one value of Curl Efficiency (%) After Treatment, 1 Wash and Dry per listed compound.
1. [Na+].[OH-] [NaOH, reference compound]
2. CN(C)C(C)(C)CO

1: 47.66%; 2: 44.86%

----------
# methodSummary: DSC keratin denaturation temperature change after straightening treatment
# Set-up: species or system human
# runParameters: Type 3 Caucasian hair after straightening; larger ΔT indicates more damage
// Not met strictly below 1 °C in ΔT (TUntreated−TAlkalizer, keratin denaturation temperature); Met otherwise

CC(C)(N)CO [AMP, Aminomethyl propanol, reference compound]    Met

Determine whether this compound has ΔT (TUntreated−TAlkalizer, keratin denaturation temperature) no lower than 1 °C: [Na+].[OH-] [NaOH, reference compound]
Met

----------
Assign pH of alkalizer composition to each entry below.
# methodSummary: pH of hair perming composition
# Format: physicochemical
# runParameters: Table 9
One number for each entry.

Check out these entries, answers already filled in.
NC(CO)(CO)CO    8.36
CCC(N)(CO)CO    8.98
N.O [Ammonium hydroxide, reference compound]    9.14
NCC(O)CO (stereo not drawn)    9.18

Please supply pH of alkalizer composition for each of the following items, keeping them in order.
1. NCCO [MEA, Monoethanolamine, reference compound]
2. [Na+].[OH-] [NaOH, reference compound]
3. CN(C)C(C)(C)CO
4. NC(CO)CO

1. 9.40
2. 10.56
3. 10.18
4. 8.68

# get_value(readout='pH of alkalizer composition', item= `CC(N)(CO)CO` )
9.04

----------
Can you tell me pH for the items I'm about to list?
# methodSummary: pH of hair perming composition
# Format: physicochemical
# runParameters: hair perming composition: base of Table 2 (7.50% thioglycolic acid) plus alkalizer, same molar percentage of alkalizer
Numbers only.

NC(CO)CO [Serinol, 2-Amino-1,3-propanediol]    8.68
[Na+].[OH-] [NaOH, reference compound]    10.56
CCC(N)(CO)CO [AEPD, 2-Amino-2-ethyl-1,3-propanediol]    9.09

Let's switch to this compound now.
Please give the measured pH for this compound: N.O [Ammonium hydroxide, reference compound]
9.14

----------
# methodSummary: Straightening efficiency after hair straightening treatment
# Design: species or system human
# runParameters: Type 2C Caucasian hair; 1 wash with 5% SDS solution
Answer each item with its documented Straightening Efficiency (%) After Treatment, 1 Wash and Dry.
One number for each entry, in %.

Worked cases, Straightening Efficiency (%) After Treatment, 1 Wash and Dry given:
NC(CO)CO [Serinol, 2-Amino-1,3-propanediol]    88.24
NCCO [MEA, Monoethanolamine, reference compound]    65.38

Working through the 4 molecules below one at a time, give Straightening Efficiency (%) After Treatment, 1 Wash and Dry for each.
1. CCC(N)(CO)CO [AEPD, 2-Amino-2-ethyl-1,3-propanediol]
2. CN(C)C(C)(C)CO [DMAMP, 2-Dimethylamino-2-methyl-1-propanol]
3. [Na+].[OH-] [NaOH, reference compound]
4. NCC(O)CO (stereo not drawn) [Isoserinol, 3-Amino-1,2-propanediol]

94.70
93.75
65.71
97.30

----------
# methodSummary: DSC keratin denaturation temperature change after curling treatment
# runParameters: Type 1 Caucasian hair after curling treatment; larger ΔT indicates more damage
Exam item: assign Criterion met to entries whose ΔT (TUntreated−TAlkalizer, keratin denaturation temperature) is below 3 °C and Criterion not met to entries at or above 3 °C. Note that a value of exactly 3 °C receives Criterion not met.

See these solved cases before continuing.
CC(N)(CO)CO    Criterion met
CCC(N)(CO)CO    Criterion met
NC(CO)(CO)CO    Criterion met
CC(C)(N)CO [AMP, Aminomethyl propanol, reference compound]    Criterion not met

# check: ΔT (TUntreated−TAlkalizer, keratin denaturation temperature) < 3 °C for `CN(C)C(C)(C)CO`
Criterion not met

hey, is ΔT (TUntreated−TAlkalizer, keratin denaturation temperature) for [Na+].[OH-] [NaOH, reference compound] lower than 3 °C or not?
Criterion not met

A record lists `NC(CO)CO` . Is its ΔT (TUntreated−TAlkalizer, keratin denaturation temperature) below 3 °C?
Criterion met

----------
# methodSummary: Curl efficiency after hair curling treatment
# Parameters: species or system human; concentration or dose not given beside the values
# runParameters: Type 1 Chinese hair
I'd be grateful if you could share measured % Change In Curl Efficiency From 1 to 8 Washes for these entries.
Answers are plain numbers, in %.

NC(CO)CO [Serinol, 2-Amino-1,3-propanediol]    −14.82
NCC(O)CO (stereo not drawn) [Isoserinol, 3-Amino-1,2-propanediol]    −10.93
CCC(N)(CO)CO [AEPD, 2-Amino-2-ethyl-1,3-propanediol]    −15.09
[Na+].[OH-] [NaOH, reference compound]    −19.92
NCCO [MEA, Monoethanolamine, reference compound]    −13.43

Next up:
Would you kindly share the measured % Change In Curl Efficiency From 1 to 8 Washes for CN(C)C(C)(C)CO [DMAMP, 2-Dimethylamino-2-methyl-1-propanol] ?
−17.06

----------
# methodSummary: pH of hair perming composition
# Type: physicochemical
# runParameters: Table 8
# Source text: For testing, we prepared the hair perming compositions shown by Tables 2 and 3, below. […] All compositions contain the same molar percentage of alkalizer, the water content being adjusted accordingly.
Would you mind telling me the reported pH of alkalizer composition of each entry?
One number for each entry.

These recorded examples may help you get a feel for the data.
CN(C)C(C)(C)CO [DMAMP, 2-Dimethylamino-2-methyl-1-propanol]    10.18
NCC(O)CO (stereo not drawn) [Isoserinol, 3-Amino-1,2-propanediol]    9.18
NCCO [MEA, Monoethanolamine, reference compound]    9.40
N.O [Ammonium hydroxide, reference compound]    9.14

Hey, can you go through the list below and give me pH of alkalizer composition for every item?
1. CCC(N)(CO)CO [AEPD, 2-Amino-2-ethyl-1,3-propanediol]
2. NC(CO)CO [Serinol, 2-Amino-1,3-propanediol]
3. CC(N)(CO)CO [AMPD, 2-Amino-2-methyl-1,3-propanediol]
4. NC(CO)(CO)CO [Tris, Tromethamine]
5. [Na+].[OH-] [NaOH, reference compound]

1: 9.09; 2: 8.68; 3: 9.04; 4: 8.36; 5: 10.56

Every entry's value here was drawn from patent US20250127698A1.
